Target of assay: T1, Human AMY3 receptor (CT/RAMP3) (human, UniProt P30988)
T1 sequence 1: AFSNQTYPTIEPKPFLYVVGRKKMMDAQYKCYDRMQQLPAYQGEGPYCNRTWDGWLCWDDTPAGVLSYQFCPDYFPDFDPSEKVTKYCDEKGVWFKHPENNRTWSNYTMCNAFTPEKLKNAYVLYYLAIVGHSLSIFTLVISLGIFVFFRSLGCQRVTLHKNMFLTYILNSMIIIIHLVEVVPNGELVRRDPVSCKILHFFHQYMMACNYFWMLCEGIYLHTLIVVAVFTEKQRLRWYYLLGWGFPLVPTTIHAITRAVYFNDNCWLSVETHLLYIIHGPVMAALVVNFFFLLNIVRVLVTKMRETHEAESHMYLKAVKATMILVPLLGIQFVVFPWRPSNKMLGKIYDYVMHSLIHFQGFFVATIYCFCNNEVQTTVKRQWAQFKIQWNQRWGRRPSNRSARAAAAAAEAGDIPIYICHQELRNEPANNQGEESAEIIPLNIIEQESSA
T1 sequence 2: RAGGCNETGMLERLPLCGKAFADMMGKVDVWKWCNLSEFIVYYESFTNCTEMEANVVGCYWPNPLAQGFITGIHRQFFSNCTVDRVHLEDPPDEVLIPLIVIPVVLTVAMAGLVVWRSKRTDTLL
Assay procedure: cell-based or functional assay
Starred links: 1 amine or outer side, 2 acyl side, 3 side chain; linkers in the order of their positions; H or OH if unused. Non-standard residues stand in square brackets, D forms with d. Groups on a side chain read outwards from the residue. γGlu = O=C(O)[C@H](CCC(=O)[*:2])N[*:1]; C(:O)(CH2)nR3 = not defined here; Aib = CC(C)(N)C(=O)O
Metric: EC50 (nM), cAMP cell-based agonist assay

>>> result_value("Peptide No. 10 (reading uncertain; also: K* acyl n and R3 not given here, acetate salt, printed as Y-Aib-E-G-T-F-T-S-D-Y-S-I-Aib-L-D-K-I-A-Q-K*-AFVQWLLAGGPSCNTATCATQRLANFLVHSSNNFGPILPPTNVGSNTY-NH2) peptide: Y[Aib]EGTFTSDYSI[Aib]LDKIAQK([γGlu-γGlu-C(:O)(CH2)nR3])AFVQWLLAGGPSCNTATCATQRLANFLVHSSNNFGPILPPTNVGSNTY-NH2")
7
>>> result_value("Peptide No. 21 (reading uncertain; also: K* n and R3 not given here, acetate salt) peptide: [dY]AEGTFTSDYSIQLDKIAQQAFVQWLLAGSGCNTATCVLGRLSQELHRLQTYPRTNTGK([γGlu-γGlu-C(:O)(CH2)nR3])NTY-NH2")
1.6
>>> result_value("Peptide No. 22 (reading uncertain; also: K* n and R3 not given here, acetate salt) peptide: [dY]AEGTFTSDYSIQLDKIAQQAFVQWLLAGSGCNTATCATQRLANFLVHSSNNFGPILPPTNVGK([γGlu-γGlu-C(:O)(CH2)nR3])NTY-NH2")
15
>>> result_value("Peptide No. 19 (reading uncertain; also: K* n and R3 not given here, acetate salt) peptide: [dY]AEGTFTSDYSIQLDKIAQQAFVQWLLAGGPSCNTATCVLGRLSQELHRLQTYPRTNTGK([γGlu-γGlu-C(:O)(CH2)nR3])NTY-NH2")
1.03
